# Test system: PRMT1 (protein arginine N-methyltransferase 1)
# ASSAY: PRMT1 binders on small-molecule microarrays, primary screen, biochemical, small-molecule microarray, 635 nm fluorescence (AID 1088);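 further: binding of Prmt1 protein to compounds spotted on small-molecule microarray slides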
# RUN PARAMETERS: small-molecule microarray binding, higher = more signal
EXPERIMENTAL ENDPOINT: composite z-score
Keep the answer to the number alone.

[
  {
    "COMPOUND": "COc1ccc(OC[C@@H]2CC3[C@@H](c4ccc(Br)cc4)[C@H](C)CC[C@H]3C(=O)O2)cc1 (some centres undefined)",
    "composite z-score": 0.112
  },
  {
    "COMPOUND": "CC(C)CON=C1[C@H]2CCn3c(=O)n(C)c(=O)n3[C@H]2[C@H](O)[C@@H]2O[C@H]12",
    "composite z-score": -0.117
  },
  {
    "COMPOUND": "CCc1cc2c(nc1CC)CCN(CCC(C)=NOC(C)CN1CCCCc3nc(C)c(C)cc31)C2 (centres undefined)",
    "composite z-score": 1.49
  },
  {
    "COMPOUND": "CC(=O)OC[C@H]1O[C@H](CC=NOC(C)CN2CCCCc3nc(C)c(C)cc32)C=C[C@@H]1OC(C)=O (some centres undefined)",
    "composite z-score": 1.54
  },
  {
    "COMPOUND": "CCOC(=O)[C@H](Cc1ccccc1)NC(=O)CCC1CC(OC(=O)NCc2cccc3ccccc23)CC2(CCCC(COC(=O)NCCc3ccccc3OC)O2)O1 (some centres undefined)",
    "composite z-score": 1.4
  },
  {
    "COMPOUND": "COc1ccc(COC(=O)NN=C2C[C@@H](O)[C@@H](O)[C@@H]3[C@@H]4C(=O)N([C@@H](C)c5ccccc5)C(=O)[C@@H]4CC[C@@H]23)cc1",
    "composite z-score": -0.0948
  }
]

Which composite z-score reading was recorded for the compound COC(=O)CC=C[C@@H](C)[C@@H](C=NOC[C@@H](O)COCc1ccco1)NS(=O)(=O)c1ccc(C)cc1 ?
0.0315

Need composite z-score of COC(=O)[C@H](C)NC(=O)CCC1CC(OC(=O)NCc2ccc3c(c2)OCO3)CC2(CCCC(COC(=O)NCc3ccccc3)O2)O1 (some centres undefined) , thanks.
1.23

Please report the recorded composite z-score for CC(CCC(=O)OC[C@H]1O[C@H](C#Cc2ccccc2)C=C[C@@H]1Oc1ccc(C)cc1)=NOC[C@@H](C)[C@H](OCc1ccccc1)C(C)C .
-0.694

---

# SUBJECT OF TEST: E3 ubiquitin-protein ligase XIAP (Homo sapiens) (UniProt P98170)
# Sequence (P98170 whole entry, looked up): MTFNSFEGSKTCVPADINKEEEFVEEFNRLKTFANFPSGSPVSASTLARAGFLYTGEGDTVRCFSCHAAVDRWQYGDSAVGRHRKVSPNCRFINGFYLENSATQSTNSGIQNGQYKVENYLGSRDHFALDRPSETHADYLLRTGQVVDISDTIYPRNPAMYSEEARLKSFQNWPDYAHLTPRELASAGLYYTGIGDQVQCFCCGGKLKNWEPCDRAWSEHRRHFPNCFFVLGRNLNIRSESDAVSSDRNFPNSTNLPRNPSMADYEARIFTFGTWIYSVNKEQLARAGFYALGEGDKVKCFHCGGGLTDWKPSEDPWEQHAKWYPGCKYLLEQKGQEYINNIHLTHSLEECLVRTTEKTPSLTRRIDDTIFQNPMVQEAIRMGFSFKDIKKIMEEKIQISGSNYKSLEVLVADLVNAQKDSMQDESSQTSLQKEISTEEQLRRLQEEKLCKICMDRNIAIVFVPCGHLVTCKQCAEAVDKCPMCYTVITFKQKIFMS
# ASSAY: XIAP binders, primary screen, biophysical, small-molecule microarray, fluorescence 635 nm (AID 1181);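 further: score merges 667 nm emission and signal to noise over triplicate slides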
# RUN PARAMETERS: small-molecule microarray binding, higher = more signal
EXPERIMENTAL ENDPOINT: composite z-score
// no unit string in output, number only

Sample records with composite z-score:
[
  {
    "COMPOUND": "CC(=O)OC[C@H]1O[C@H](CC=NOC[C@@H](O)[C@H]2O[C@@H]3OC(C)(C)O[C@@H]3[C@H]2O)C=C[C@@H]1OC(C)=O",
    "composite z-score": 0.013
  },
  {
    "COMPOUND": "C[C@H]1CC[C@H]2C(=O)OC(COc3ccc(C(C)(C)C)cc3)CN2[C@@H]1c1ccc(Br)cc1 (stereo partly specified)",
    "composite z-score": -0.173
  },
  {
    "COMPOUND": "CON=C1c2cc(OC)ccc2O[C@H](c2cccc(OC)c2)[C@H]1O",
    "composite z-score": 0.418
  }
]

Query (compound): COC(=O)[C@H](C)NC(=O)CCC1CC(OC(=O)NCc2ccc3c(c2)OCO3)CC2(CCCC(COC(=O)NCCC(C)C)O2)O1 (stereo partly specified) ; field requested: composite z-score
0.0245

Query: composite z-score; subject: CC(=O)OC[C@H]1O[C@H](CC=NO[C@@H](C)c2cn([C@H](CO)Cc3ccccc3)nn2)C=C[C@@H]1OC(C)=O
-0.434

Record request: composite z-score value, item COC(=O)CC=C[C@@H](C)[C@@H](C=NOC[C@@H](C)[C@H](OCc1ccccc1)C(C)C)NS(=O)(=O)c1ccc(C)cc1
-0.0844
